src = paper PMC6536371

target: MT1-MMP (Homo sapiens, UniProt P50281); assay: FRET triple-helical peptide; type: biochemical
Assay readout: pIC50
// pIC50 is dimensionless: -log10 of concentration (M)

Entry CNC(=O)[C@@H](NC(=O)[C@H](CC(C)C)[C@H](O)C(=O)NO)C(C)(C)C [marimastat] ; assay system MT1-MMP (Homo sapiens, UniProt P50281); pIC50 recorded at 7.72
